target: P. falciparum apicoplast DNA polymerase (Pf-apPOL) (Plasmodium falciparum, UniProt Q8ILY1)
Sequence (Q8ILY1 entry or part of it): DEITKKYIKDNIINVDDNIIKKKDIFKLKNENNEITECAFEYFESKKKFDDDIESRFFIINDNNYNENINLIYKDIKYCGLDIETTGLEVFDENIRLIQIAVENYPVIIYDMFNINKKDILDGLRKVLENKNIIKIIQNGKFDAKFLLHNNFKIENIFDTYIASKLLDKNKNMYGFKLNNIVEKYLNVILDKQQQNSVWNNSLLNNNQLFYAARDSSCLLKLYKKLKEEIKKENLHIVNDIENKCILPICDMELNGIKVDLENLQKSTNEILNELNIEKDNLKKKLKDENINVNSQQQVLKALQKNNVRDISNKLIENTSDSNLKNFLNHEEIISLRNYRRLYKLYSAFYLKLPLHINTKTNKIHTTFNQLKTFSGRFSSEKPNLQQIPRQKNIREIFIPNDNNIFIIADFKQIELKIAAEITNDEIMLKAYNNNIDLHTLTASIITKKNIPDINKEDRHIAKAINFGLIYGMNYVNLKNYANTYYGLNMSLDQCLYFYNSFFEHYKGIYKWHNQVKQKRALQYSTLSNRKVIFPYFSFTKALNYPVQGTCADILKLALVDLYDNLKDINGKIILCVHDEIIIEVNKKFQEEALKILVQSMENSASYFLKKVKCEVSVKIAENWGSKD
test details: Fluorescence-based high-throughput DNA polymerase assay (molecular beacon), primary screen and dose-response;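 also: test concentration in µM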
Assay type: biochemical
condition info: DRC-2, 90', concentration 5
% inhibition ApPOL 90' for assorted molecules
All answers are understood in %, so give the number only.

Illustrative cases are given below, each with its answer.
O=C(O)CC1=NN(c2cccc([N+](=O)[O-])c2)C(=O)C1; 15
O=[N+]([O-])c1cc2c(cc1CN1CCCCCC1)OCO2; 9
O=C(O)c1c(F)c(F)c(-c2c(F)c(F)c(C(=O)O)c(F)c2F)c(F)c1F; 7.58
Oc1ccc(N=Nc2ccccc2)c(O)c1; -0.664
COc1ccc2c(c1)CCc1c-2nc2ccc(Br)cc2c1C(=O)O; 22
O=[N+]([O-])c1cc2c(cc1CN1CCN(c3cccc(Cl)c3)CC1)OCO2; 1.42

Lookup: Requested field: % inhibition ApPOL 90'. Item: "Cc1nn(CC(=O)NCCSCc2ccco2)c(C)c1Br"
Found: 4

Lookup: Requested field: % inhibition ApPOL 90'. Item: "CCSc1nnc(NC(=O)Cc2csc(NC(=O)c3cnccn3)n2)s1"
Found: 5

Lookup: Requested field: % inhibition ApPOL 90'. Item: CO/N=C(\C(=O)N[C@@H]1C(=O)N2C(C(=O)[O-])=C(CSc3nc(=O)c([O-])nn3C)CSC12)c1csc(N)n1.[Na+].[Na+] (some centres unmarked)
Found: -7
